experiment: EXSY NMR of cis/trans rotamer exchange; format: physicochemical; conditions: D2O PBS buffer, pH* ~7.4, EXSY
result-type: ΔSAB

What measured ΔSAB goes with COc1ccc(S(=O)(=O)N(CC(=O)O)c2ccc(N(Cc3nnn[nH]3)S(=O)(=O)c3ccc(OC)cc3)c3ccccc23)cc1 ?
16.8 J/(K·mol)

---

molecular target: Keap1 Kelch domain (Homo sapiens)
result-type: IC50

What measured IC50 goes with COc1ccc(S(=O)(=O)N(CC(=O)O)c2ccc(N(Cc3nnn[nH]3)S(=O)(=O)c3ccc(OC)cc3)c3ccccc23)cc1 ?
31 nM

---

test: EXSY NMR of cis/trans rotamer exchange; format: physicochemical; settings: D2O PBS buffer, pH* ~7.4, EXSY
result-type: ΔS^‡AB

What measured ΔS^‡AB goes with COc1ccc(S(=O)(=O)N(CC(=O)O)c2ccc(N(Cc3nnn[nH]3)S(=O)(=O)c3ccc(OC)cc3)c3ccccc23)cc1 [Compound 25] ?
-11.3 J/(K·mol)

---

target: Keap1 Kelch domain (Homo sapiens, UniProt Q14145); construct: made in house; assay: Isothermal titration calorimetry (ITC); type: binding; conditions: from ITC and MST data; read-out: Kd value for Keap1 Kelch domain (overall, lower limit of detection)
Sequence (Q14145 322-609): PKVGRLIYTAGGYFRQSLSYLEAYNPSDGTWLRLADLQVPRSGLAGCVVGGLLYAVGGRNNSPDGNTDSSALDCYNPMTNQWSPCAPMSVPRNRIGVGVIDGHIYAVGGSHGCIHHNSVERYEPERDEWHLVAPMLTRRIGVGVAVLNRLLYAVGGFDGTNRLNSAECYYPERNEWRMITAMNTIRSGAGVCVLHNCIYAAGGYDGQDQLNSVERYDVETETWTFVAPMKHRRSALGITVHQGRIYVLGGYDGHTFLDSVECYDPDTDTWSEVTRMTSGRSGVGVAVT
pKd: −log10 of the molar value.
result-type: pKd

What measured pKd goes with COc1ccc(S(=O)(=O)N(CC(=O)O)c2ccc(N(Cc3nnn[nH]3)S(=O)(=O)c3ccc(OC)cc3)c3ccccc23)cc1 [Compound 25] ?
≥ 9.00

---

system: NQO1; test: NQO1 induction assay in Hepa1c1c7 cells; format: cell-based, mouse; settings: Mus musculus, Hepa-1c1c7, 10 μM
# binarize fold induction at 10 µM: threshold 1 inclusive, high side fulfilled, low side not fulfilled

• COc1ccc(S(=O)(=O)N(CC#N)c2ccc(N(CC#N)S(=O)(=O)c3ccc(OC)cc3)c3ccccc23)cc1 = not fulfilled
• CCOC(=O)CN(c1ccc(N(CC(=O)O)S(=O)(=O)c2ccc(OC)cc2)c2ccccc12)S(=O)(=O)c1ccc(OC)cc1 = not fulfilled

Say whether COc1ccc(S(=O)(=O)N(Cc2nnn[nH]2)c2ccc(N(Cc3nnn[nH]3)S(=O)(=O)c3ccc(OC)cc3)c3ccccc23)cc1 shows fold induction at 10 µM of 1 or more.
fulfilled

Say whether COc1ccc(S(=O)(=O)N(Cc2nnc(C)o2)c2ccc(N(Cc3nnc(C)o3)S(=O)(=O)c3ccc(OC)cc3)c3ccccc23)cc1 shows fold induction at 10 µM of 1 or more.
fulfilled

Say whether COc1ccc(S(=O)(=O)N(CC(=O)O)c2ccc(N(CC(=O)O)S(=O)(=O)c3ccc(OC)cc3)c3ccccc23)cc1 [Compound 2, reference compound] shows fold induction at 10 µM of 1 or more.
fulfilled

Say whether COc1ccc(S(=O)(=O)N(CC(=O)O)c2ccc(N(Cc3nnn[nH]3)S(=O)(=O)c3ccc(OC)cc3)c3ccccc23)cc1 shows fold induction at 10 µM of 1 or more.
fulfilled

Say whether COc1ccc(S(=O)(=O)N(CC(N)=O)c2ccc(N(CC(=O)O)S(=O)(=O)c3ccc(OC)cc3)c3ccccc23)cc1 shows fold induction at 10 µM of 1 or more.
fulfilled

---

biological target: Keap1 (Homo sapiens, UniProt Q14145); experiment: Microscale thermophoresis (MST); conditions: 10 nM Keap1
Sequence (Q14145 322-609): as above
result-type: pKd
Units for pKd: none; it is -log10 of a concentration expressed in mol/L.

* COc1ccc(S(=O)(=O)N(CC(=O)O)c2ccc(N(Cc3nnn[nH]3)S(=O)(=O)c3ccc(OC)cc3)c3ccccc23)cc1 | 7.61

Now look at this one.
// fetch Keap1 (Homo sapiens, UniProt Q14145) pKd for COc1ccc(S(=O)(=O)N(Cc2nnn[nH]2)c2ccc(N(Cc3nnn[nH]3)S(=O)(=O)c3ccc(OC)cc3)c3ccccc23)cc1
7.77

---

target: Keap1 Kelch domain (Homo sapiens); construct: made in house; test: Differential scanning fluorimetry (DSF) thermal shift assay; assay type: binding; settings: 10 μM compound; Keap1 vehicle control Ti = 61.3 ± 0.3 °C
// boundary case: DSF ΔTi equal to 10 °C maps to not fulfilled; strictly smaller maps to fulfilled

Take the compound COc1ccc(S(=O)(=O)N(Cc2nnn[nH]2)c2ccc(N(Cc3nnn[nH]3)S(=O)(=O)c3ccc(OC)cc3)c3ccccc23)cc1 and say whether its DSF ΔTi is less than 10 °C.
not fulfilled

Take the compound COc1ccc(S(=O)(=O)N(CC(N)=O)c2ccc(N(CC(N)=O)S(=O)(=O)c3ccc(OC)cc3)c3ccccc23)cc1 and say whether its DSF ΔTi is less than 10 °C.
fulfilled

Take the compound COc1ccc(S(=O)(=O)N(CC(=O)O)c2ccc(N(Cc3nnn[nH]3)S(=O)(=O)c3ccc(OC)cc3)c3ccccc23)cc1 and say whether its DSF ΔTi is less than 10 °C.
not fulfilled

Take the compound COc1ccc(S(=O)(=O)N(Cc2nnc(C)o2)c2ccc(N(Cc3nnc(C)o3)S(=O)(=O)c3ccc(OC)cc3)c3ccccc23)cc1 and say whether its DSF ΔTi is less than 10 °C.
fulfilled

Data credit: paper PMC12664080
